- assay.remarks: Cytotoxicity against human C8166 cells after 72 hrs by MTT method
- Format: cell-based
readout.kind: CC50 at 72 h

• COc1ccc(C2NCCc3cc(O)c(O)cc32)cc1 (stereo not drawn) = > 738 µM
• Oc1cc2c(cc1O)C(c1ccc(Br)cc1)NCC2 (stereo not drawn) = > 625 µM
• COc1ccccc1C1NCCc2cc(O)c(O)cc21 (stereo not drawn) = > 738 µM

###

- assay.remarks: Selectivity index, ratio of CC50 for C8166 cells to EC50 for HIV1 3B
- Format: functional
readout.kind: Ratio CC50/EC50

- Cc1ccccc1C1NCCc2cc(O)c(O)cc21 (configuration not stated): >13
- Cc1cn([C@H]2C[C@H](N=[N+]=[N-])[C@@H](CO)O2)c(=O)[nH]c1=O: >68091
- COc1ccccc1C1NCCc2cc(O)c(O)cc21 (configuration not stated): >18
- N#Cc1ccc(C2NCCc3cc(O)c(O)cc32)cc1 (configuration not stated): >14
- Oc1cc2c(cc1O)C(c1ccco1)NCC2 (configuration not stated): >14
- Oc1cc2c(cc1O)C(c1ccccc1Br)NCC2 (configuration not stated): >26
- COc1ccc(C2NCCc3cc(O)c(O)cc32)c(OC)c1 (configuration not stated): >14

###

This listing pairs molecules with measured CC50 at 72 h.
- assay.remarks: Cytotoxicity against human C8166 cells after 72 hrs by MTT method
- Assay type: cell-based
readout.kind: CC50 at 72 h (µM)

- COc1cc2c(cc1OC)C(c1ccccc1C)NCC2 (centres undefined): 197
- COc1cc2c(cc1OC)C(c1ccc3ccccc3c1)NCC2 (centres undefined): 54.6
- COc1cc2c(cc1OC)C(c1ccccc1Br)NCC2 (centres undefined): 89
- COc1cc2c(cc1OC)C(c1cccc(Br)c1)NCC2 (centres undefined): 107

###

- assay.remarks: Cytotoxicity against human C8166 cells after 72 hrs by MTT method
- Format: cell-based
readout.kind: CC50 at 72 h

• N#Cc1ccc(C2NCCc3cc(O)c(O)cc32)cc1 (stereo not given) = > 752 µM
• Cc1cn([C@H]2C[C@H](N=[N+]=[N-])[C@@H](CO)O2)c(=O)[nH]c1=O [ZIDOVUDINE] = > 749 µM
• COc1ccc(C2NCCc3cc(O)c(O)cc32)c(OC)c1 (stereo not given) = > 664 µM
• Oc1cc2c(cc1O)C(c1ccccn1)NCC2 (stereo not given) = > 826 µM
• Oc1cc2c(cc1O)C(c1cccc(Cl)c1)NCC2 (stereo not given) = > 727 µM
